Experiment Notes: A CellTox Green Cytotoxicity Assay to monitor cytotoxicity in HEK293 cells - 16 hour (AID 1224888); further: nearly all actives have a fitted effect of over 35% in size
Setup Conditions: CellTox Green fluorescence; series mostly up to 76.8 µM
Results filed as inconclusive are left out. Activity calls are given as the source filed them. The call rests on the fitted dose curve; in most records, active means well fitted activation curve with a large enough effect in the repeat runs; inconclusive means weak or mixed curves; inactive means flat fitted curve, though single readings scatter.
Outcome codes: active, inactive

[
  {
    "Compound": "C/C=C(\\C)C(=O)OCc1ccccc1",
    "Class Name": "inactive"
  },
  {
    "Compound": "CCC1OCC(COc2ccc(Oc3ccccc3)cc2)O1 (stereo not drawn)",
    "Class Name": "inactive"
  },
  {
    "Compound": "CCCCN(CCCC)C(=O)N(CCCC)CCCC",
    "Class Name": "inactive"
  },
  {
    "Compound": "CCCCCCCCCCn1cc[n+](CCCCCCCCCC)c1C",
    "Class Name": "active"
  },
  {
    "Compound": "CC(C)(C)NC(=O)[C@@H]1C[C@@H]2CCCC[C@@H]2CN1C[C@@H](O)[C@H](Cc1ccccc1)NC(=O)[C@H](CC(N)=O)NC(=O)c1ccc2ccccc2n1",
    "Class Name": "inactive"
  },
  {
    "Compound": "O=[N+]([O-])c1cc(Cl)c(Cl)c(Cl)c1Cl",
    "Class Name": "inactive"
  },
  {
    "Compound": "NNc1nc(-c2ccc([N+](=O)[O-])cc2)cs1",
    "Class Name": "inactive"
  },
  {
    "Compound": "CNC(=O)c1ccccc1",
    "Class Name": "inactive"
  },
  {
    "Compound": "O=C(c1ccc(F)cc1)C1CCN(CCn2c(=O)[nH]c3ccccc3c2=O)CC1",
    "Class Name": "inactive"
  },
  {
    "Compound": "[Cl][Au]([Cl])[Cl]",
    "Class Name": "active"
  },
  {
    "Compound": "C[C@@H]1C[C@H]2[C@@H]3CCC4=CC(=O)C=C[C@]4(C)[C@@]3(Cl)[C@@H](O)C[C@]2(C)[C@@]1(OC(=O)c1ccco1)C(=O)CCl",
    "Class Name": "inactive"
  },
  {
    "Compound": "O=C(Oc1cccc2cccnc12)c1ccccc1",
    "Class Name": "inactive"
  },
  {
    "Compound": "C=CC(=O)OCC(CO)(COC(=O)C=C)COC(=O)C=C",
    "Class Name": "inactive"
  },
  {
    "Compound": "CCOC(=O)O[C@]1(C(=O)OCCl)CC[C@H]2[C@@H]3CCC4=CC(=O)C=C[C@]4(C)[C@H]3[C@@H](O)C[C@@]21C",
    "Class Name": "inactive"
  },
  {
    "Compound": "CSc1cnc(C)cn1",
    "Class Name": "active"
  },
  {
    "Compound": "CCC(C)Nc1ccc(NC(C)CC)cc1 (stereo not drawn)",
    "Class Name": "active"
  },
  {
    "Compound": "O=CC=C(c1ccccc1)c1ccccc1",
    "Class Name": "inactive"
  },
  {
    "Compound": "CC1=C(C(=O)OC(C)C)C(c2cccc([N+](=O)[O-])c2)C(C(=O)OC2CN(C(c3ccccc3)c3ccccc3)C2)=C(N)N1 (stereo not drawn)",
    "Class Name": "inactive"
  },
  {
    "Compound": "Nc1ccc2cc(S(=O)(=O)O)cc(O)c2c1N=Nc1ccccc1C(F)(F)F",
    "Class Name": "inactive"
  },
  {
    "Compound": "CCCCCCCCCOC(=O)c1ccc(O)cc1",
    "Class Name": "active"
  },
  {
    "Compound": "C[C@@H](NCCCc1cccc(C(F)(F)F)c1)c1cccc2ccccc12",
    "Class Name": "active"
  },
  {
    "Compound": "Cc1[nH]cnc1C[C@H]1CCc2c(C)c3ccccc3n2C1=O",
    "Class Name": "inactive"
  },
  {
    "Compound": "Cc1cc2c(cc1C(F)(F)F)N(C(=O)Nc1ccc(Oc3cccnc3C)nc1)CC2",
    "Class Name": "inactive"
  },
  {
    "Compound": "CC(C)(C)C(=O)OCOC(=O)C1N2C(=O)CC2S(=O)(=O)C1(C)C (stereo not drawn)",
    "Class Name": "inactive"
  },
  {
    "Compound": "COCCCC/C(=N\\OCCN)c1ccc(C(F)(F)F)cc1",
    "Class Name": "inactive"
  },
  {
    "Compound": "CC(=O)S[C@@H]1CC2=CC(=O)CC[C@]2(C)[C@H]2CC[C@@]3(C)[C@@H](CC[C@@]34CCC(=O)O4)[C@H]12",
    "Class Name": "inactive"
  },
  {
    "Compound": "CCOC(=O)/C=C(C)/C=C/C=C(C)/C=C/c1c(C)cc(OC)c(C)c1C",
    "Class Name": "inactive"
  },
  {
    "Compound": "O=c1c(-c2ccccc2)c1-c1ccccc1",
    "Class Name": "inactive"
  },
  {
    "Compound": "CC[C@H]1O[C@]2(CC[C@@H]1C)C[C@@H]1C[C@@H](C/C=C(\\C)C[C@@H](C)/C=C/C=C3\\CO[C@@H]4[C@H](O)C(C)=C[C@@H](C(=O)O1)[C@]34O)O2",
    "Class Name": "active"
  },
  {
    "Compound": "Nc1nc2ccccc2n1Cc1ccc(F)cc1",
    "Class Name": "inactive"
  },
  {
    "Compound": "CCc1cc(Cc2cc(CC)c(N)c(CC)c2)cc(CC)c1N",
    "Class Name": "inactive"
  },
  {
    "Compound": "CCCCN1CCCC[C@H]1C(=O)Nc1c(C)cccc1C",
    "Class Name": "inactive"
  },
  {
    "Compound": "Cc1cc(N)c(S(=O)(=O)O)cc1Cl",
    "Class Name": "inactive"
  }
]

# credit: PubChem BioAssay (Tox21)
